test: qHTS Assay for Lipid Storage Modulators in Drosophila S3 Cells; conditions: BODIPY lipid droplet fluorescence, 18-24 h, cells fed with added oleic acid; series mostly up to 46.1 µM
Screen size: about 320,000 compounds; about 2,100 (0.66%) were called active. Another 53% or so got no clear call; they are omitted. The call rests on the fitted dose curve; in most records, active means well fitted inhibition curve with a large enough effect in the signal ratio, with a control signal flat (not every such curve was filed as active); inconclusive means small, poorly fitted or top-dose-only effect, or effect the other way, or a change in a side signal; inactive means flat fitted curve, though single readings scatter; the % refers to the signal ratio. The entries come from a sample that favours actives as a whole.
Classes used: yes = active, no = inactive

{"columns": ["compound", "group"],
 "data": [
  ["O=C(COc1ccc(F)cc1)NCCCn1ccnc1", "yes"],
  ["Cc1cc(OCC(=O)NCc2ccncc2)c2c(C)c(C)c(=O)oc2c1", "no"],
  ["CCc1cc(=O)oc2cc(C)cc(OCC(=O)NCCCn3ccnc3)c12", "no"],
  ["Cc1cc(OCC(=O)Nc2ccccn2)c2c(C)c(C)c(=O)oc2c1", "yes"],
  ["O=C(COc1ccc(Br)cc1)NCCCn1ccnc1", "no"],
  ["CC(Sc1cccc(C(F)(F)F)c1)C(=O)NC(N)=O (stereo unspecified)", "no"]
]}

----------
assay: qHTS Assay for Lipid Storage Modulators in Drosophila S3 Cells; settings: BODIPY lipid droplet fluorescence, 18-24 h, cells fed with added oleic acid; series mostly up to 46.1 µM
In all, about 320,000 compounds went through this assay and about 2,100 (0.66%) were called active. Roughly 53% stayed inconclusive and do not appear here. The call rests on the fitted dose curve; in most records, active means well fitted inhibition curve with a large enough effect in the signal ratio, with a control signal flat (not every such curve was filed as active); inconclusive means small, poorly fitted or top-dose-only effect, or effect the other way, or a change in a side signal; inactive means flat fitted curve, though single readings scatter; the % refers to the signal ratio. For the sample, actives were picked, then their nearest neighbours and some compounds at random.
Outcomes: active, inactive

{"columns": ["molecule", "group"],
 "data": [
  ["Cc1onc(C(=O)N2CCN(C(c3ccccc3)c3ccccc3)CC2)c1[N+](=O)[O-]", "inactive"],
  ["COc1ccccc1C1=Nn2c(COc3ccccc3)nnc2SC1", "inactive"],
  ["C[C@H](NC(=O)Nc1cccc(C(F)(F)F)c1)C(=O)O", "inactive"],
  ["COP(=O)(OC)C(Nc1cc(Cl)cc(Cl)c1)c1cccc(O)c1 (stereo not drawn)", "inactive"],
  ["O=c1c(Cl)c(N2CCNCC2)cnn1C12CC3CC(CC(C3)C1)C2", "inactive"],
  ["COc1ccc(Cl)cc1C(=O)Nc1ccccc1N1CCCCC1", "inactive"],
  ["Cn1c(-c2ccc(F)cc2)cnc1NCc1ccc(F)cc1F", "inactive"],
  ["CSCC[C@H](NC(=O)Nc1cccc(Br)c1)C(=O)O", "inactive"],
  ["Cc1c(N=Cc2cccnc2)c(=O)n(-c2ccccc2)n1C", "inactive"],
  ["COC(=O)[C@H](CCSC)NC(=O)Nc1ccc(C(C)=O)cc1", "inactive"],
  ["COc1ccc(C2C(C(=O)NCc3cccnc3)c3ccccc3C(=O)N2C)cc1OC (stereo not drawn)", "active"],
  ["COCCOC(=O)c1c(C)oc2ccc(OC(=O)c3ccc4c(c3)OCO4)cc12", "inactive"],
  ["Cn1c(=O)c(C(=O)NCc2ccccc2)c(O)c2ccccc21", "inactive"],
  ["CCc1noc(C)c1C(=O)Nc1ccc(F)c(F)c1F", "inactive"],
  ["CSc1cccc(NC(=O)C(C)NS(=O)(=O)c2ccc(F)cc2)c1 (stereo not drawn)", "inactive"],
  ["COC(=O)[C@H](CCSC)NC(=O)Nc1ccc(C)c(C)c1", "active"],
  ["CCc1noc(C)c1C(=O)Nc1ccccc1N1CCOCC1", "inactive"],
  ["O=C(c1ccc(-c2ccccc2)cc1)N1CCN(Cc2ccccn2)CC1", "inactive"],
  ["O=C(Nc1cccc2ncccc12)c1cccnc1", "inactive"],
  ["CC(C)(C)c1ccc(C(=O)Nc2cccc3ncccc23)cc1", "active"],
  ["Cc1c(N=Cc2ccccn2)c(=O)n(-c2ccccc2)n1C", "active"],
  ["COc1cc2c(cc1OC)C(C(=O)NCc1cccnc1)C(c1cccnc1)N(C)C2=O (stereo not drawn)", "inactive"],
  ["CC(=O)Nc1cccc(C(=O)Nc2cccc3ncccc23)c1", "inactive"]
]}

----------
Listed here are compounds together with their documented cell number change.
Assay: qHTS Assay for Lipid Storage Modulators in Drosophila S3 Cells;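 on cell number change: cells counted by Cell Tracker Red CMTPX staining in the red channel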
Conditions: BODIPY lipid droplet fluorescence, 18-24 h, cells fed with added oleic acid; measured here: cell count max response
Text: NIH Molecular Libraries Probe Production Centers Network [MLPCN] NIH Chemical Genomics Center [NCGC] […] Triacsin C (Sigma-Aldrich T-4540), an inhibitor of long-chain fatty acyl CoA synthetase that blocks synthesis of triglycerides, was used as a positive control for lipid under-storage. […] Fluorescence was detected by excitation of the fluorophores with a 488-nm laser on an Acumen Explorer (TTP Lab Tech). […] Cells were detected using channel 3 (575-640 nm) with 5-um width and 100-um depth filters. […]
Among all 320,000 compounds or so, about 2,100 (0.66%) were called active. Inconclusive results (about 53%) are left out. Only a selection was taken, and actives are over-represented in it overall.

{"columns": ["compound", "cell number change (%)"],
 "data": [
  ["CCOC(=O)C(C)(C)N(Cc1cccc(C)c1)S(=O)(=O)c1ccc(Cl)c([N+](=O)[O-])c1", -21.7],
  ["N#C/C(=C/c1ccc(-c2ccccc2)o1)c1nc(-c2cccs2)cs1", 20.9],
  ["COc1cccc(-c2cc(C(=O)Nc3ccc(OC)c(OC)c3)no2)c1", -25.5],
  ["N#C/C(=C\\c1ccc(-c2ccc(F)cc2)o1)C(=O)Nc1nc(-c2cccs2)cs1", -13],
  ["CC(C)NC(=O)C(=O)Nc1cc2c3c(c1)CCC(=O)N3CCC2", -25.7],
  ["O=C(Cc1cccc(C(F)(F)F)c1)NCc1cccnc1", 16.2],
  ["CCCCOC(=O)c1ccc(NC(=O)C(CCS(C)(=O)=O)NC(C)=O)cc1 (stereo unspecified)", 13],
  ["O=C(NCCO)C(=O)Nc1cc2c3c(c1)CCN3C(=O)CC2", -29],
  ["CCNC(=O)C(=O)Nc1cc2c3c(c1)CCN3C(=O)CC2", -2.95],
  ["CN(Cc1c(F)cccc1Cl)C(=O)c1ccc2ccccc2n1", 19.7],
  ["CCOC(=O)C(C)(C)N(Cc1ccc(C)cc1)S(=O)(=O)c1ccc(Cl)c([N+](=O)[O-])c1", -25.3]
]}

----------
Form field: cell number change (one value per entry).
assay: qHTS Assay for Lipid Storage Modulators in Drosophila S3 Cells; settings: BODIPY lipid droplet fluorescence, 18-24 h, cells fed with added oleic acid; measured here: cell count max response;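 on cell number change: cells counted by Cell Tracker Red CMTPX staining in the red channel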
The whole screen tested about 320,000 compounds, of which about 2,100 (0.66%) were called active. Not shown: some 53% with an inconclusive outcome. Shown is part of a subset that was picked to be rich in actives.

{"columns": ["molecule", "cell number change"],
 "data": [
  ["Cc1cccc(C(=O)O/N=C/c2ccc(Br)cc2)c1", "7.42%"],
  ["CCS(=O)(=O)c1ccc2oc(SCC(=O)Nc3ccc(OC)cc3)nc2c1", "7.84%"],
  ["O=C(CSc1nnc(-c2ccccc2F)o1)N1CCCC1", "22.6%"],
  ["O=C(NC(Cc1ccccc1)C(=O)O)/C(=C/c1ccc(Cl)cc1)NC(=O)c1ccccc1 (stereo unspecified)", "1.96%"],
  ["O=C(NC(Cc1ccccc1)C(=O)O)/C(=C\\c1ccccc1)NC(=O)c1ccco1 (stereo unspecified)", "-6.67%"],
  ["O=C(O)CCc1nc(-c2cccs2)no1", "-23%"]
]}

----------
assay: qHTS Assay for Lipid Storage Modulators in Drosophila S3 Cells; conditions: BODIPY lipid droplet fluorescence, 18-24 h, cells fed with added oleic acid; measured here: cell count max response;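 on cell number change: cells counted by Cell Tracker Red CMTPX staining in the red channel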
Hit rate of the full screen: of about 320,000 compounds, about 2,100 (0.66%) were called active. Inconclusive results (about 53%) are left out. This excerpt belongs to a sample that is enriched for actives.
experimental.endpoint: cell number change (%)

{"columns": ["compound", "experimental.endpoint", "recorded.value"],
 "data": [
  ["Cc1oc(/C=N/NC(=O)CN(c2ccccc2Br)S(C)(=O)=O)cc1Br", "cell number change", 0.768],
  ["CS(=O)(=O)N(CC(=O)N/N=C/c1ccco1)c1ccccc1Br", "cell number change", 2.71],
  ["CCN1CCN(Cc2c(C(=O)N/N=C(\\C)c3ccc(Cl)c(Cl)c3)nnn2-c2nonc2N)CC1", "cell number change", -0.855],
  ["CCOC(=O)c1ccc(-c2ccc(/C=N/NC(=O)CN(c3ccccc3Br)S(C)(=O)=O)o2)cc1", "cell number change", -15.9],
  ["O=[N+]([O-])c1cccc(OCCN2CCC(Cc3ccccc3)CC2)c1", "cell number change", 10.2],
  ["CCCn1c(N)c(C(=O)CN(C)CC(=O)Nc2c(Cl)cccc2Cl)c(=O)[nH]c1=O", "cell number change", -5.76],
  ["CCO[C@H]1OC(C(=O)N2CCCCCCC2)=C[C@@H](c2ccccc2)[C@@H]1CCCO", "cell number change", -2.78],
  ["COC(=O)c1c(NC(=O)c2cccnc2Cl)sc(C(=O)N(C)C)c1C", "cell number change", 7.02],
  ["O=C(NC1CCOC1)c1ccc(OC2CCN(CCc3ccccc3)CC2)cc1 (stereo not given)", "cell number change", -24],
  ["CC(=O)N(C)c1ccc(NC(=O)c2ccc([N+](=O)[O-])cc2Cl)cc1", "cell number change", 1.5]
]}
